Hey, just so you know, these numbers are from patent US20250215412A1.

System under test: T1, Chryseobacterium sp-62563 deamidase polypeptide (second polypeptide, deamidase domain), wildtype (Chryseobacterium sp-62563)
T1 sequence: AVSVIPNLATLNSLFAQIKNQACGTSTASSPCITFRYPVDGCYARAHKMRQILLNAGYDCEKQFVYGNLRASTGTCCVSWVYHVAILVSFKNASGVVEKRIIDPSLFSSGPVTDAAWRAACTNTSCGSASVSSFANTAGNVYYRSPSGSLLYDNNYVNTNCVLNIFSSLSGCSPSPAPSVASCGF
Assay explanation: cell-based or functional assay
We begin with a simple list: items and their reported NanoDSF thermal unfolding temperature.
Write down the numeric answer in ° C. and omit the unit.

• Chryseobacterium sp-62563 propeptide P69L (protein) NQDPNLVAKESNETAMKDFGKTVPVGIEKEDGKFKISFMVTAQPYEIKDSKENAAYISMIKTAVENETLIHVFLKANTNEIAKVDKATDDDIRYFKSVFTKEVKEENRK = 81.5
• Chryseobacterium sp-62563 propeptide P69T (protein) NQDPNLVAKESNETAMKDFGKTVPVGIEKEDGKFKISFMVTAQPYEIKDSKENAAYISMIKTAVENETTIHVFLKANTNEIAKVDKATDDDIRYFKSVFTKEVKEENRK = 78.5
• Chryseobacterium sp-62563 propeptide P69G (protein) NQDPNLVAKESNETAMKDFGKTVPVGIEKEDGKFKISFMVTAQPYEIKDSKENAAYISMIKTAVENETGIHVFLKANTNEIAKVDKATDDDIRYFKSVFTKEVKEENRK = 77

Let us examine a further case.
binder Chryseobacterium sp-62563 propeptide F99A (protein) NQDPNLVAKESNETAMKDFGKTVPVGIEKEDGKFKISFMVTAQPYEIKDSKENAAYISMIKTAVENETPIHVFLKANTNEIAKVDKATDDDIRYFKSVATKEVKEENRK , NanoDSF thermal unfolding temperature observed: 76.4
